Each recorded value in this set is attributed to patent US20190144550A1.

Each record here notes measured pKd.
Target or system: T1, Monomeric 8-histidine tagged human EGFRvIII extracellular domain (human, UniProt P00533 298-645)
T1 construct: Analyte in all SPR assays; not shown: 8-histidine tag
Measurement description: SPR, captured by anti-human Fc, 37 C
pKd: −log10 of the molar value.
Test readout: pKd

binder="h62G7-EQ/L1-DV (antibody, V domains shown, Human IgG1) VH: QVQLVQSGAEVKKPGASVKVSCKASGYTFTDYTLHWVRQAPGQGLEWMGGIWPITGGTTYNQKFKGRVTMTRDTSTSTVYMELSSLRSEDTAVYYCARGEAQGSWGQGTLVTVSS VL: DVVMTQSPLSLPVTLGQPASISCKSSQSLLYSNDKTYTNWFQQRPGQSPRRLIYEVSKLDVGVPDRFSGSGSGTDFTLKISRVEAEDVGVYYCGQDTHFPLTFGGGTKVEIK" quantitative_readout=6.73
binder="h62G7-H14/L1-DV (antibody, V domains shown, Humanized, human IgG1 recombinant antibody) VH: QVQLVQSGAEVKKPGASVKVSCKASGYTFTDYTLHWVRQAPGQGLEWMGGIWPITGGTTYNQKFKGRVTMTRDTSTSTVYMELSSLRSEDTAVYYCARGEAEGSWGQGTLVTVSS VL: DVVMTQSPLSLPVTLGQPASISCKSSQSLLYSNDKTYTNWFQQRPGQSPRRLIYEVSKLDVGVPDRFSGSGSGTDFTLKISRVEAEDVGVYYCGQDTHFPLTFGGGTKVEIK" quantitative_readout=5.81
binder="h62G7-EQ/L6 (antibody, V domains shown, Humanized, human IgG1 recombinant antibody; also called h62G7-L6/EQ) VH: QVQLVQSGAEVKKPGASVKVSCKASGYTFTDYTLHWVRQAPGQGLEWMGGIWPITGGTTYNQKFKGRVTMTRDTSTSTVYMELSSLRSEDTAVYYCARGEAQGSWGQGTLVTVSS VL: DVVMTQSPLSLPVTLGQPASISCKSSQSLLYSNGKTYLNWFQQRPGQSPRRLIYQVSKLDSGVPDRFSGSGSGTDFTLKISRVEAEDVGVYYCGQDTHFPLTFGGGTKVEIK" quantitative_readout=6.95
binder="h62G7-H14/L6 (antibody, V domains shown, Human IgG1) VH: QVQLVQSGAEVKKPGASVKVSCKASGYTFTDYTLHWVRQAPGQGLEWMGGIWPITGGTTYNQKFKGRVTMTRDTSTSTVYMELSSLRSEDTAVYYCARGEAEGSWGQGTLVTVSS VL: DVVMTQSPLSLPVTLGQPASISCKSSQSLLYSNGKTYLNWFQQRPGQSPRRLIYQVSKLDSGVPDRFSGSGSGTDFTLKISRVEAEDVGVYYCGQDTHFPLTFGGGTKVEIK" quantitative_readout=5.80
